The values you see were collected from patent US6441021B1.

- Target desc: MMP-9 (92 kDa, gelatinase B; type IV collagenase) (Homo sapiens, UniProt P14780)
- Construct: endogenous in cells; enzyme purified from the conditioned medium
- Sequence (P14780 107-707 limits assumed): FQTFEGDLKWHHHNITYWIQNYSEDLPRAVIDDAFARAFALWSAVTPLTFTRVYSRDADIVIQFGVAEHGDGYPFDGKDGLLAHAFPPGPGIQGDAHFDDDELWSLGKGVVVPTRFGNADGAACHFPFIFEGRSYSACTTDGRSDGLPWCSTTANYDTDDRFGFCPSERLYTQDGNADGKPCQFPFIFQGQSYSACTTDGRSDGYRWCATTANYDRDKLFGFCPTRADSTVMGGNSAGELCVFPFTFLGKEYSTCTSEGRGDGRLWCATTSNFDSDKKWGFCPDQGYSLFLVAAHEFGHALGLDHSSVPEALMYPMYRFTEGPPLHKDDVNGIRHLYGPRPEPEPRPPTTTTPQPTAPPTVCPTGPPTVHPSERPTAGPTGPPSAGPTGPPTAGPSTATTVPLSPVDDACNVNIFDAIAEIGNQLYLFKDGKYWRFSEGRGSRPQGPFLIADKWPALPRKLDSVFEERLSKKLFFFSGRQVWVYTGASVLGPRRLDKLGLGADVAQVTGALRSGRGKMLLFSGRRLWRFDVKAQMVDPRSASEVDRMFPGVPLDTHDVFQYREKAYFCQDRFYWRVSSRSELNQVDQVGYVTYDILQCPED
- Test summary: Assay of type IV collagenase inhibitors: activated MMP-9 with type IV collagenase activity kit substrate, fluorescent intensity
- Type: biochemical
- Protocol conditions: inhibition of type IV collagenase (MMP-9), concentration at which percent inhibition reaches 50%
Examples of compounds with documented pIC50 follow.
FYI, pIC50 means -log10 of a concentration in mol per litre.

{"columns": ["Compound", "Target desc", "pIC50"],
 "data": [
  ["O=C(Nc1ccc(S(=O)(=O)N[C@H](Cc2c[nH]c3ccccc23)C(=O)O)cc1)c1ccccc1 [Example 177]", "MMP-9 (92 kDa, gelatinase B; type IV collagenase) (Homo sapiens, UniProt P14780)", 6.16],
  ["CSc1ccc(C(=O)Nc2ccc(S(=O)(=O)N[C@@H](C(=O)O)C(C)C)cc2)cc1 [Example 197]", "MMP-9 (92 kDa, gelatinase B; type IV collagenase) (Homo sapiens, UniProt P14780)", 7.79],
  ["COc1ccc(-c2ccc(S(=O)(=O)N[C@H](Cc3ccccc3)C(=O)O)s2)cc1 [1a-3-10]", "MMP-9 (92 kDa, gelatinase B; type IV collagenase) (Homo sapiens, UniProt P14780)", 8.08],
  ["O=C(Nc1ccc(S(=O)(=O)N[C@H](Cc2c[nH]c3ccccc23)C(=O)O)cc1)c1ccc(Br)cc1 [Example 183]", "MMP-9 (92 kDa, gelatinase B; type IV collagenase) (Homo sapiens, UniProt P14780)", 8.57],
  ["O=C(O)[C@@H](Cc1c[nH]c2ccccc12)NS(=O)(=O)c1ccc(C#Cc2ccc([N+](=O)[O-])cc2)cc1 [Example 1a-2-7]", "MMP-9 (92 kDa, gelatinase B; type IV collagenase) (Homo sapiens, UniProt P14780)", 7.16]
]}

Consider Cc1ccc(C#Cc2ccc(S(=O)(=O)N[C@H](Cc3ccccc3)C(=O)O)s2)cc1 [Example 1a-2-37] . Its measured pIC50 is 7.04

Consider Cc1ccc(-c2ccc(S(=O)(=O)N[C@H](Cc3c[nH]c4ccccc34)C(=O)O)s2)cc1 [Example 1a-3-3] . Its measured pIC50 is 7.97

###

Examples of molecules with documented melting point follow.

Consider COc1ccc(C(=O)Nc2ccc(S(=O)(=O)N[C@@H](C(=O)O)C(C)C)cc2)cc1 (hydrate or solvate) . Its measured melting point is 220 to 221 °C

Consider CC(C)[C@@H](NS(=O)(=O)c1ccc(-c2nnn(-c3ccc(F)cc3)n2)cc1)C(=O)O (hydrate or solvate) . Its measured melting point is 208 to 209 °C

Consider O=C(Nc1ccc(S(=O)(=O)N[C@H](Cc2c[nH]c3ccccc23)C(=O)O)cc1)c1ccc(Br)cc1 (hydrate or solvate) . Its measured melting point is 215 to 218 °C

Consider O=C(Nc1ccc(S(=O)(=O)N[C@H](Cc2c[nH]c3ccccc23)C(=O)O)cc1)c1ccc(F)cc1 (hydrate or solvate) . Its measured melting point is 170 to 175 °C

Consider O=C(Nc1ccc(S(=O)(=O)N[C@H](Cc2ccccc2)C(=O)O)cc1)c1ccccc1 . Its measured melting point is 114 to 115 °C

###

Examples of compounds with documented IC50 follow.
- Target desc: MMP-9 (92 kDa, gelatinase B; type IV collagenase) (Homo sapiens, UniProt P14780)
- Construct: endogenous in cells; enzyme purified from the conditioned medium
- Test summary: Assay of type IV collagenase inhibitors: activated MMP-9 with type IV collagenase activity kit substrate, fluorescent intensity
- Assay type: biochemical
- Procedure: (1) Isolation and Purification of MMP-9 (92 kDa, Gelatinase B) Type IV collagenase (MMP-9) was purified according to the methods descrived in the following literature. Subsequently, activated MMP-9 was obtained by treating the pro-MMP-9 with trypsin. (2) Assay Methods of Type IV Collagenase Inhibitors […] According to the manufacturer's protocol, fluorescent intensity was measured and percent inhibition was determined by the following equation. […]
Quick reminder: number only, in nM, skip the unit.

{"columns": ["Chemical structure", "Target desc", "IC50 / nM"],
 "data": [
  ["CSc1ccc(-c2ccc(S(=O)(=O)N(C)[C@@H](C(=O)O)C(C)C)s2)cc1", "MMP-9 (92 kDa, gelatinase B; type IV collagenase) (Homo sapiens, UniProt P14780)", 130],
  ["O=C(Nc1ccc(S(=O)(=O)N[C@H](Cc2ccccc2)C(=O)O)cc1)c1ccc(Cl)nc1", "MMP-9 (92 kDa, gelatinase B; type IV collagenase) (Homo sapiens, UniProt P14780)", 722]
]}

Please look at the following compound next.
Consider COc1ccc(C(=O)Nc2ccc(S(=O)(=O)N[C@@H](C(=O)O)C(C)(C)C)cc2)cc1 . Its measured IC50 is 173
